Biological target: E. coli K12 PBP3 (Escherichia coli, UniProt P0AD68)
Sequence (P0AD68 1-577): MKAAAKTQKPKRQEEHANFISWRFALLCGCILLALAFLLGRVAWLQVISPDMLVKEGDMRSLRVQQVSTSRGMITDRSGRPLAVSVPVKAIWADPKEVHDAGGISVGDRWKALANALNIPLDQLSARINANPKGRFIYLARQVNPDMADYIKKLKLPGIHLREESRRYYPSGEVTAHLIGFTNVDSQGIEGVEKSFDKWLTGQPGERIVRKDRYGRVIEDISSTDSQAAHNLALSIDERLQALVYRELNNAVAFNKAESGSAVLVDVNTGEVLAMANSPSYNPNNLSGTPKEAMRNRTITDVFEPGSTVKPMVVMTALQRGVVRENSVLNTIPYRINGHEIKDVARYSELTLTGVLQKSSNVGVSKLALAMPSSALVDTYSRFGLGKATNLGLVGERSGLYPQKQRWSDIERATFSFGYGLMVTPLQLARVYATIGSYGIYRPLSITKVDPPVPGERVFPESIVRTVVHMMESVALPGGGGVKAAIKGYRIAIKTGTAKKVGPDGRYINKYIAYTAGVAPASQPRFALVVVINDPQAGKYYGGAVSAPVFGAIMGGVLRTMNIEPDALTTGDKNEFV
Assay: biochemical
endpointLabel: EC50

Example entries begin here.
molecule	result
CCN1CCN(C(=O)N[C@@H](C(=O)N[C@H]2Cc3cccc(C(=O)O)c3OB2O)c2ccc(C(=O)O)c(F)c2)C(=O)C1=O (single isomer, unassigned) [Example 146]	< 30 µM
CCN1CCN(C(=O)NC(C(=O)N[C@H]2Cc3cccc(C(=O)O)c3OB2O)c2ccc(C(=O)O)c(O)c2)C(=O)C1=O (some centres unmarked) [Example 196]	< 30 µM
NCCN1CCN(C(=O)N[C@@H](C(=O)N[C@H]2Cc3cccc(C(=O)O)c3OB2O)c2c(F)cc(O)cc2F)C(=O)C1=O (single isomer, unassigned) [Example 111]	< 30 µM
CCN1CCN(C(=O)NC(C(=O)N[C@H]2Cc3cccc(C(=O)O)c3OB2O)c2ccc(O)c(NS(C)(=O)=O)c2)C(=O)C1=O (some centres unmarked) [Example 22]	< 30 µM
NS(=O)(=O)Nc1ccc(F)c([C@@H](NC(=O)N2CCN(CC(F)(F)F)C(=O)C2=O)C(=O)N[C@H]2Cc3cccc(C(=O)O)c3OB2O)c1 (single isomer, unassigned) [Example 219]	< 30 µM
CCN1CCN(C(=O)NC(C(=O)N[C@H]2Cc3cccc(C(=O)O)c3OB2O)c2ccc(O)c(NS(N)(=O)=O)c2)C(=O)C1=O (some centres unmarked) [Example 30]	< 30 µM
CCN1CCN(C(=O)NC(C(=O)N[C@H]2Cc3ccc(SCCN4CCCC4)c(C(=O)O)c3OB2O)c2csc(N)n2)C(=O)C1=O (some centres unmarked) [Example 64]	> 500 µM
O=C(O)c1cccc2c1OB(O)[C@@H](NC(=O)[C@H](NC(=O)N1CCN(CCF)C(=O)C1=O)c1c(F)cc(O)cc1F)C2 (single isomer, unassigned) [Example 126]	< 30 µM
CS(=O)(=O)N1CCN(C(=O)NC(C(=O)N[C@H]2Cc3ccc(F)c(C(=O)O)c3OB2O)c2ccc(O)c(O)c2Cl)C1=O (some centres unmarked) [Example 23]	< 30 µM
CCN1CCN(C(=O)NC(C(=O)N[C@H]2Cc3cccc(C(=O)O)c3OB2O)c2cccc(NC(=O)c3cncnc3)c2)C(=O)C1=O (some centres unmarked) [Example 96]	30 to 500 µM

Request the reported EC50 associated with NC1(CN2CCN(C(=O)N[C@@H](C(=O)N[C@H]3Cc4cccc(C(=O)O)c4OB3O)c3ccc(O)c(F)c3F)C(=O)C2=O)CC1 (single isomer, unassigned) [Example 236]
< 30 µM

// same read-out, input: C[C@H]1CN(CCN)C(=O)C(=O)N1C(=O)N[C@@H](C(=O)N[C@H]1Cc2cccc(C(=O)O)c2OB1O)c1ncc(O)cc1F [Example 14]
< 30 µM

// same read-out, input: CCN1CCN(C(=O)NC(C(=O)N[C@H]2Cc3ccc(C=NOCCN)c(C(=O)O)c3OB2O)c2csc(N)n2)C(=O)C1=O (some centres unmarked) [Example 62]
> 500 µM

// same read-out, input: CCN1CCN(C(=O)N[C@H](C(=O)N[C@H]2Cc3cccc(C(=O)O)c3OB2O)c2ccc(C(=O)O)cc2Cl)C(=O)C1=O (single isomer, unassigned) [Example 152]
30 to 500 µM

// same read-out, input: NS(=O)(=O)Nc1ccc(F)c([C@H](NC(=O)N2CCN(CC(F)(F)F)C(=O)C2=O)C(=O)N[C@H]2Cc3cccc(C(=O)O)c3OB2O)c1 (single isomer, unassigned) [Example 218]
30 to 500 µM

// same read-out, input: NCCN1CCN(C(=O)N[C@H](C(=O)N[C@H]2Cc3cccc(C(=O)O)c3OB2O)c2ccc(O)cc2Cl)C(=O)C1=O (single isomer, unassigned) [Example 85]
30 to 500 µM

// same read-out, input: CCN1CCN(C(=O)NC(C(=O)N[C@H]2Cc3cccc(C(=O)O)c3OB2O)c2cc(O)cc(O)c2)C(=O)C1=O (mixture of isomers) [Example 79]
30 to 500 µM

// same read-out, input: CCN1CCN(C(=O)NC(C(=O)N[C@H]2Cc3cccc(C(=O)O)c3OB2O)c2ccc(O)c(Cl)c2F)C(=O)C1=O (some centres unmarked) [Example 185]
< 30 µM

// same read-out, input: NCCN1CCN(C(=O)NC(C(=O)N[C@H]2Cc3cccc(C(=O)O)c3OB2O)c2c(F)cc(NS(N)(=O)=O)cc2F)C(=O)C1=O (some centres unmarked) [Example 177]
30 to 500 µM

// same read-out, input: CCN1CCN(C(=O)NC(C(=O)N[C@H]2Cc3cccc(C(=O)O)c3OB2O)c2c(F)cc(NC(C)=O)cc2F)C(=O)C1=O (some centres unmarked) [Example 188]
< 30 µM

// same read-out, input: NCCN1CCN(C(=O)NC(C(=O)N[C@H]2Cc3cccc(C(=O)O)c3OB2O)c2c(F)cc(O)cc2Cl)C(=O)C1=O (some centres unmarked) [Example 94]
< 30 µM

// same read-out, input: CCN1CCN(C(=O)NC(C(=O)N[C@H]2Cc3cccc(C(=O)O)c3OB2O)c2cccc(CNS(N)(=O)=O)c2)C(=O)C1=O (some centres unmarked) [Example 107]
30 to 500 µM

// same read-out, input: CS(=O)(=O)N1CCN(C(=O)N[C@@H](C(=O)N[C@H]2Cc3cccc(C(=O)O)c3OB2O)c2c(F)cc(O)cc2F)C1=O (single isomer, unassigned) [Example 135]
< 30 µM

====

Tested on: E. coli 901C
Test: Broth microdilution MIC in CAMHB
Type: cell-based
Details: Escherichia coli; E. coli 901C (hyper-permeable); MHB; read-out: Minimum Inhibitory Concentration, E. coli 901C
Listed here are molecules together with their documented MIC.

molecule	MIC
NCCN1CCN(C(=O)N[C@@H](C(=O)N[C@H]2Cc3cccc(C(=O)O)c3OB2O)c2cc(Cl)c(O)c(Cl)c2)C(=O)C1=O (single isomer, unassigned)	< 0.25 µg/mL
NC1(CN2CCN(C(=O)N[C@@H](C(=O)N[C@H]3Cc4cccc(C(=O)O)c4OB3O)c3c(F)cc(O)cc3F)C(=O)C2=O)CC1 (single isomer, unassigned)	0.5 to 1 µg/mL
CCN1CCN(C(=O)N[C@@H](C(=O)N[C@H]2Cc3cccc(C(=O)O)c3OB2O)c2ccc(C(=O)O)c(F)c2)C(=O)C1=O (single isomer, unassigned)	< 0.25 µg/mL
CCN1CCN(C(=O)NC(C(=O)N[C@H]2Cc3ccc(SC)c(C(=O)O)c3OB2O)c2csc(N)n2)C(=O)C1=O (stereo partly drawn)	0.5 to 1 µg/mL

Request the reported MIC associated with CCN1CCN(C(=O)N[C@H](C(=O)N[C@H]2Cc3cccc(C(=O)O)c3OB2O)c2cc(Cl)c(O)cc2Cl)C(=O)C1=O (single isomer, unassigned)
2 to 4 µg/mL

// same read-out, input: CCN1CCN(C(=O)NC(C(=O)N[C@H]2Cc3cccc(C(=O)O)c3OB2O)c2cc(O)cc(O)c2)C(=O)C1=O (mixture of isomers)
< 0.25 µg/mL

// same read-out, input: CCN1CCN(C(=O)NC(C(=O)N[C@H]2Cc3cccc(C(=O)O)c3OB2O)c2cncc(O)c2)C(=O)C1=O (stereo partly drawn)
0.5 to 1 µg/mL

// same read-out, input: CCN1CCN(C(=O)N[C@@H](C(=O)N[C@H]2Cc3cccc(C(=O)O)c3OB2O)c2cc(O)cc(O)c2)C(=O)C1=O (single isomer, unassigned)
< 0.25 µg/mL

// same read-out, input: NCCN1CCN(C(=O)N[C@@H](C(=O)N[C@H]2Cc3cccc(C(=O)O)c3OB2O)c2ccc(O)cc2Cl)C(=O)C1=O (single isomer, unassigned)
2 to 4 µg/mL

// same read-out, input: NCCN1CCN(C(=O)N[C@@H](C(=O)N[C@H]2Cc3cccc(C(=O)O)c3OB2O)c2ccc(O)cc2F)C(=O)C1=O (single isomer, unassigned)
2 to 4 µg/mL

// same read-out, input: CCN1CCN(C(=O)NC(C(=O)N[C@H]2Cc3cccc(C(=O)O)c3OB2O)c2cc(C#N)c(O)cc2F)C(=O)C1=O (stereo partly drawn)
< 0.25 µg/mL

// same read-out, input: CCN1CCN(C(=O)NC(C(=O)N[C@H]2Cc3cccc(C(=O)O)c3OB2O)c2cccc(CNS(N)(=O)=O)c2)C(=O)C1=O (stereo partly drawn)
0.5 to 1 µg/mL

====

Listed here are compounds together with their documented MIC.
Test system: E. coli D22
Assay: Broth microdilution MIC in CAMHB
Format: cell-based
Settings: Escherichia coli; E. coli D22 (hyper-permeable); MHB; read-out: Minimum Inhibitory Concentration, E. coli D22

Example entries begin here.
compound	MIC
CCN1CCN(C(=O)N[C@@H](C(=O)N[C@H]2Cc3cccc(C(=O)O)c3OB2O)c2ccc(C(=O)O)c(F)c2Cl)C(=O)C1=O (single isomer, unassigned) [Example 203]	2 to 4 µg/mL
NCCN1CCN(C(=O)N[C@@H](C(=O)N[C@H]2Cc3cccc(C(=O)O)c3OB2O)c2ccc(O)c(F)c2F)C(=O)C1=O (single isomer, unassigned) [Example 170]	2 to 4 µg/mL
NCCN1CCN(C(=O)N[C@@H](C(=O)N[C@H]2Cc3cccc(C(=O)O)c3OB2O)c2ccc(O)cc2F)C(=O)C1=O (single isomer, unassigned) [Example 89]	8 to 16 µg/mL
CCN1CCN(C(=O)NC(C(=O)N[C@H]2Cc3cccc(C(=O)O)c3OB2O)c2ccc(O)c(NC(=O)c3ccc(O)c(O)c3Cl)c2)C(=O)C1=O (stereo partly shown) [Example 74]	2 to 4 µg/mL
NCCN1CCN(C(=O)N[C@H](C(=O)N[C@H]2Cc3cccc(C(=O)O)c3OB2O)c2ccc(C(=O)O)cc2)C(=O)C1=O (single isomer, unassigned) [Example 83]	2 to 4 µg/mL
NCCN1CCN(C(=O)N[C@H](C(=O)N[C@H]2Cc3cccc(C(=O)O)c3OB2O)c2ccc(O)cc2F)C(=O)C1=O (single isomer, unassigned) [Example 88]	32 to 64 µg/mL
O=C(O)c1cccc2c1OB(O)[C@@H](NC(=O)C(NC(=O)N1CCN(CC3CNC3)C(=O)C1=O)c1c(F)cc(O)cc1F)C2 (stereo partly shown) [Example 193]	2 to 4 µg/mL
CCN1CCN(C(=O)NC(C(=O)N[C@H]2Cc3cccc(C(=O)O)c3OB2O)c2cc(NS(N)(=O)=O)ccc2F)C(=O)C1=O (stereo partly shown) [Example 197]	0.5 to 1 µg/mL

Request the reported MIC associated with CCN1CCN(C(=O)N[C@@H](C(=O)N[C@H]2Cc3cccc(C(=O)O)c3OB2O)c2ccc(C(=O)O)cc2O)C(=O)C1=O (single isomer, unassigned) [Example 144]
2 to 4 µg/mL

// same read-out, input: CCN1CCN(C(=O)NC(C(=O)N[C@H]2Cc3cccc(C(=O)O)c3OB2O)c2c(F)cc(C(=O)O)cc2F)C(=O)C1=O (stereo partly shown) [Example 157]
2 to 4 µg/mL
